apparent KD of MS2 coat protein values, listed per item
# System: MS2 coat protein
# ASSAY NAME: apparent KD of MS2 coat protein; designed switch direction (-1 OFF switch, 1 ON switch): -1; higher = weaker reporter binding
# TEST SETTINGS: Eterna round: R95; input ligand: microRNA oligo, concentration not stated
Please reply with the bare figure in nM and do not write the unit itself.

Please review the entries below; each comes with its answer.
RESIDUE SEQUENCE: CUUUUGUGAGGAUAUCAGUAGUAAAAAAAUAAUAUUACUACUGAGAAGGCACAUGAGGAUCACCCAUGUUCCUC [salish99_ex4_r3_024] (puzzle: Exclusion 4)
UNIT DESCRIPTOR: nM
apparent KD of MS2 coat protein: 38.4
//
RESIDUE SEQUENCE: AAGAAACAUGAGGAUCACCCAUGUGAGGAUAUGAUCAAGAAAAGAAAAGAAAGAAGAAUCAGAAGGCACAAAGG [salish99-ex1_r3_044] (puzzle: Exclusion 1)
UNIT DESCRIPTOR: nM
apparent KD of MS2 coat protein: 176
//
RESIDUE SEQUENCE: CUCAGACAUGAGGAUCACCCAUGUCAGGAUAUCGUCUACCUGUGGAAACACAGGUAGACGAGAAGGGAUGUGUU [SS1 Omei 3 v1] (puzzle: Exclusion 1)
UNIT DESCRIPTOR: nM
apparent KD of MS2 coat protein: 43.5
//
RESIDUE SEQUENCE: AAAAAGACAGGAUAUACAUGAGGAUCACCCAUGUGAAACAAAAUAAAAUAAAAUAAAAGUAGAAGGGUCAAAAA [Exclusion 3 #2] (puzzle: Exclusion 3)
UNIT DESCRIPTOR: nM
apparent KD of MS2 coat protein: 31.9
//
RESIDUE SEQUENCE: GUGUAGUCAGGAUAUACAUAGGAAGAUAAUAUAAUAUAAGUACAUGAGGAUCACCCAUGUAGAAGGGACAGUGU [Excluse me!! 9 - Jieux - Exclusion 2] (puzzle: Exclusion 2)
UNIT DESCRIPTOR: nM
apparent KD of MS2 coat protein: 35.6
//
RESIDUE SEQUENCE: AUAUAGUCAGGAUAUCGAAAUAUAUAUUAAUAUAUAUAAUACGAGAAGGGACAUGAGGAUCACCCAUGUAGUAA [JR_Exclusion4)Sub001] (puzzle: Exclusion 4)
UNIT DESCRIPTOR: nM
apparent KD of MS2 coat protein: 23.7
//
RESIDUE SEQUENCE: CUUUUGUGAGGAUAUCAGUAGUAAUAAAAUAAAAUAACUACUGAGAAGGCACAUGAGGAUCACCCAUGUUCCUC [Mat - Exclusion 4 - Mod of Salish - D72] (puzzle: Exclusion 4)
UNIT DESCRIPTOR: nM
apparent KD of MS2 coat protein: 30
//
RESIDUE SEQUENCE: CUCUUGUUAGGAUAUCAAACUGGCGGCGGAGCCGGCAGUAGUGAGAAGGGACAUGAGGAUCACCCAUGUAAGAA [Veeder] (puzzle: Exclusion 4)
UNIT DESCRIPTOR: nM
apparent KD of MS2 coat protein: 55.1

The value of apparent KD of MS2 coat protein measured for the sequence AAUAAUGGAGGAUAUACAUGAGGAUCACCCAUGUGAAUAAAAUAAAUAAAAUGAUAAAGUAGAAGGCCAAAUAA [JMF's solution 2] (puzzle: Exclusion 3) turned out to be 39.9

So, CAGUACUGAGGAUAUACAUGAGGAUCACCCAUGUGUUCCAGCUAGGAAUCUAGCAAAAGUAGAAGGCAGUACUG [salish99_ex3_r3_094x] (puzzle: Exclusion 3) ? Its apparent KD of MS2 coat protein was 25.3

For this sequence ( GGUUGGCGAGGAUAUACAUGAGGAUCACCCAUGUGCGAGAAAAAAGUGAGGAAGAAAAGUAGAAGGCGCUGACG [salish99_ex3_r3_018] (puzzle: Exclusion 3) ), measured apparent KD of MS2 coat protein is 49.5

Reported apparent KD of MS2 coat protein ( UGGGUUCUCCAUAGAAGUAACAUGAGGAUCACCCAUGUAGGGCAAGUUUUUUGCUCGUCAUAGGUUGUGGGUUUGGA [JR_SV3TOV1_Sub018] (puzzle: Sensor v3, turn-off variant 1) ) = 491

Lookup result for AAGAAACGAGGAUAUACAAUUAAGUGAGAGAGGGAAAUGUGACAUGAGGAUCACCCAUGUAGAAGGCGUAAGAG [JR_Exclu2_Sub084] (puzzle: Exclusion 2) ; measured apparent KD of MS2 coat protein: 44.2

Hello, the source for this data is the supplement of paper PMC9170038, in case you need it.
